Provenance of the data: the supplement of paper PMC12042874

assay: amyloid nucleation score (Sup35N fusion, yeast selection) (log enrichment); library NNK2; higher = more nucleation; inactive = no reads after selection;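 further: zero at mode of non-aggregating sequences after 7 days selection at 30°C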
The reader will find reported amyloid nucleation score values listed item by item below.
Lab note: record the figure alone, no unit after it.

// worked examples, amyloid nucleation score included
{"QUERY_SEQUENCE": "VDRWDGSVHCSIGGNFYCSG", "VAL": -0.545}
{"QUERY_SEQUENCE": "ICFYLLHDRIHHSWD", "VAL": 5.3}
{"QUERY_SEQUENCE": "AYSIHPLNKGVKVSYRLAGH", "VAL": 0.306}
{"QUERY_SEQUENCE": "ELGHDYYSCCGFSAREYMEH", "VAL": 4.56}
{"QUERY_SEQUENCE": "RSELLRRKGILMYLLPGGGY", "VAL": 0.009}

stdin: Consider the sequence FSFSCEGANFDVYTGMWQGS and give its measured amyloid nucleation score.
stdout: -0.073

stdin: Check DSLTCCIS too.
stdout: 3.37

stdin: Check YYVVLGSSM too.
stdout: -0.018

stdin: Check SWLYLPWLLLQARILHR too.
stdout: -0.197

stdin: Check CYSMSRVVSNGEKHYD too.
stdout: 0.675

stdin: Check GKVGWDCCISQIYCLDLFIP too.
stdout: 8.29

stdin: Check NCYNMVYNCVPSEKAVKTCR too.
stdout: 0.264

stdin: Check PCCVKSELGLPQWWSVYL too.
stdout: 5.64

stdin: Check KMDTRSRLKQWKRFFIHIPK too.
stdout: -0.92

stdin: Check NLHVGREPQGSEYVDPFSVV too.
stdout: 0.731
